molecular target: T1, cynomolgus CD3 epsilon, cell surface expressed (cynomolgus monkey PBMCs) (cynomolgus monkey, UniProt Q95LI5 22-198); experiment: flow cytometry (FACS) on cynomolgus PBMCs
T1 construct: On the cells CD3 epsilon is part of the native CD3/TCR complex; also called cyno CD3
T1 sequence (Q95LI5 22-198 limits assumed): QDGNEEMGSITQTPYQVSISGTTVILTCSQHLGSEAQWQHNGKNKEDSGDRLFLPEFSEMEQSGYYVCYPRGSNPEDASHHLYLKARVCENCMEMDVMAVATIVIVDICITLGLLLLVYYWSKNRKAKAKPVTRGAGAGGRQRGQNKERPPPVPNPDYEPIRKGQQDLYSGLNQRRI
measured-attribute: pEC50
Units for pEC50: none; it is -log10 of a concentration expressed in mol/L.

Below are worked cases with known answers.
binder="MAB-16_h_FabCys (Fab, V domains shown, Tagless disulfide-bridged human FabCys produced in HEK293 cells; also called MAB-16 Fab-Cys) VH: EVQLVESGGGLVQPGGSLRLSCAASGFTFRSHYMTWVRQAPGKGLEWVANIDYEGTRTYYAESVKGRFTISRDNAKNSLYLQMNSLRAEDTAVYYCARGYSAEFAHRSGLDVWGQGTLVTVSS VL: QSVLTQPPSASGTPGQRVTISCSGSSSNIGSNYVYWYQQLPGTAPKLLIYRNNQRPSGVPDRFSGSKSGTSASLAISGLRSEDEADYYCAGWDRRLHGAVFGGGTKLTVLG" measured_attribute=pEC50 reported_result=8.70
binder="MAB-8_h_FabCys (Fab, V domains shown, Tagless disulfide-bridged human FabCys produced in HEK293 cells; also called MAB-8 Fab-Cys) VH: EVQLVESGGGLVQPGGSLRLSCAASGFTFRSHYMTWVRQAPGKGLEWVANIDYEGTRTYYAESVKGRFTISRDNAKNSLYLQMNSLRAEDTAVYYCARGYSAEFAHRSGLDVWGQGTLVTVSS VL: QSVLTQPPSASGTPGQRVTISCSGSSSNIGSNYVYWYQQLPGTAPKLLIYRNNQRPSGVPDRFSGSKSGTSASLAISGLRSEDEADYYCAAWDRHSHGAVFGGGTKLTVLG" measured_attribute=pEC50 reported_result=8.49
binder="MAB-7_h_FabCys (Fab, V domains shown, Tagless disulfide-bridged human FabCys produced in HEK293 cells; also called MAB-7 Fab-Cys) VH: EVQLVESGGGLVQPGGSLRLSCAASGFTFKSYYMSWVRQAPGKGLEWVANIDYQSQHAYYAESVKGRFTISRDNAKNSLYLQMNSLRAEDTAVYYCARGYSAEFAHRSGLDVWGQGTLVTVSS VL: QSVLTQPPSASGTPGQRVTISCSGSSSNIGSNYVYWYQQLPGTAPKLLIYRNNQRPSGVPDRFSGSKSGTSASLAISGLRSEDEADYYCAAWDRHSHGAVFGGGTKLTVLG" measured_attribute=pEC50 reported_result=8.43
binder="MAB-13_h_FabCys (Fab, V domains shown, Tagless disulfide-bridged human FabCys produced in HEK293 cells; also called MAB-13 Fab-Cys) VH: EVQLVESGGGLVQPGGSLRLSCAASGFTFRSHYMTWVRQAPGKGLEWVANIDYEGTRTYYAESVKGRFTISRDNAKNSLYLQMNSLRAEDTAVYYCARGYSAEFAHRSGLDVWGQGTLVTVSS VL: QSVLTQPPSASGTPGQRVTISCSGSSSNIGINYVYWYQQLPGTAPKLLIYRNNQRPSGVPDRFSGSKSGTSASLAISGLRSEDEADYYCAAWDRHSHGAVFGGGTKLTVLG" measured_attribute=pEC50 reported_result=8.28
binder="MAB-12_h_FabCys (Fab, V domains shown, Tagless disulfide-bridged human FabCys produced in HEK293 cells; also called MAB-12 Fab-Cys) VH: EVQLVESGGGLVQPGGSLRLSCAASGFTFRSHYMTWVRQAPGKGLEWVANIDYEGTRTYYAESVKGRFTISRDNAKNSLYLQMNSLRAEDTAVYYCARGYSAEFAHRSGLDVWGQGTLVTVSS VL: QSVLTQPPSASGTPGQRVTISCSGSSSNIGANYVYWYQQLPGTAPKLLIYRNNQRPSGVPDRFSGSKSGTSASLAISGLRSEDEADYYCAAWDRHSHGAVFGGGTKLTVLG" measured_attribute=pEC50 reported_result=8.39

Now consider the entry below.
Q: Need pEC50 of MAB-9_h_FabCys (Fab, V domains shown, Tagless disulfide-bridged human FabCys produced in HEK293 cells; also called MAB-9 Fab-Cys) VH: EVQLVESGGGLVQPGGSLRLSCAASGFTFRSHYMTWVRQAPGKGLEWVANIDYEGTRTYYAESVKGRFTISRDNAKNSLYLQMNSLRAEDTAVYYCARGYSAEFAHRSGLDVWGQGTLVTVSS VL: QSVLTQPPSASGTPGQRVTISCSGSSSNIGINYVYWYQQLPGTAPKLLIYRNNIRPSGVPDRFSGSKSGTSASLAISGLRSEDEADYYCAAWDRHSHGAVFGGGTKLTVLG , thanks.
A: 8.33
